Each entry below lists one item and its recorded Physical data: logP value.
Assay: log P determination by HPLC (EEC Directive 79/831 Annex V.A8, gradient method)
Format: physicochemical
QUANTITY KIND: Physical data: logP

[[record]]
molecule = "COCc1nn2c(/C=C/C(=O)NC(C)C(F)(F)F)c(-c3ccccc3Cl)nc2s1 (stereo not drawn) [Example 0817]"
quantity_kind = "Physical data: logP"
result = 2.93

[[record]]
molecule = "COc1ccc(-c2nc3sc(C(F)(F)F)nn3c2/C=C/C(=O)N2CCOCC2)cc1OC [Example 0718]"
quantity_kind = "Physical data: logP"
result = 2.58

[[record]]
molecule = "O=C(/C=C/c1c(-c2ccccc2Cl)nc2sc(-c3ccc(C(F)(F)F)cc3)nn12)NC1CCCC1 [Example 0853]"
quantity_kind = "Physical data: logP"
result = 4.44


----------
Assay: log P determination by HPLC (EEC Directive 79/831 Annex V.A8, gradient method)
Type: physicochemical
Each entry below lists one item and its recorded Physical data (logP) value.
QUANTITY KIND: Physical data (logP)

[[record]]
compound = "CCC(NC(=O)C=Cc1c(-c2ccccc2Cl)nc2sc(C(F)(F)F)nn12)c1ccccc1 (centres unmarked)"
quantity_kind = "Physical data (logP)"
readout_number = 4.08

[[record]]
compound = "O=C(O)/C=C/c1c(-c2ccc(Oc3ccc(Cl)cc3)cc2)nc2sc(C(F)(F)F)nn12"
quantity_kind = "Physical data (logP)"
readout_number = 4.22

[[record]]
compound = "CC(C)(C)NC(=O)/C=C/c1c(-c2ccccc2Cl)nc2sc(C(F)(F)F)nn12"
quantity_kind = "Physical data (logP)"
readout_number = 3.72

[[record]]
compound = "COc1ccc(-c2nc3sc(C(F)(F)F)nn3c2/C=C/C(=O)O)cc1OC"
quantity_kind = "Physical data (logP)"
readout_number = 2.43

[[record]]
compound = "CC(ONC(=O)/C=C/c1c(-c2cccc(Cl)c2)nc2sc(C(F)(F)F)nn12)c1ccccc1 (centres unmarked)"
quantity_kind = "Physical data (logP)"
readout_number = 4.23

[[record]]
compound = "O=Cc1c(-c2cncc(Br)c2)nc2sc(C(F)(F)F)nn12"
quantity_kind = "Physical data (logP)"
readout_number = 2.62

[[record]]
compound = "CC(COc1ccccc1)NC(=O)/C=C/c1c(-c2cccc(Cl)c2)nc2sc(C(F)(F)F)nn12 (centres unmarked)"
quantity_kind = "Physical data (logP)"
readout_number = 4.56

[[record]]
compound = "O=C(/C=C/c1c(-c2ccccc2Cl)nc2sc(C(F)(F)F)nn12)NC1CCCC1"
quantity_kind = "Physical data (logP)"
readout_number = 3.55


----------
Experiment: log P determination by HPLC (EEC Directive 79/831 Annex V.A8, gradient method)
Assay type: physicochemical
Details: HPLC, gradient method, acetonitrile/0.1% strength aqueous phosphoric acid or formic acid; read-out: Physical data: logP
QUANTITY KIND: chromatographic logP

[[record]]
compound = "CCC(CC)NC(=O)/C=C/c1c(-c2ccc(F)cc2Cl)nc2sc(C(F)(F)F)nn12 [Example 0638]"
result = 3.89

[[record]]
compound = "CC(NC(=O)/C=C/c1c(-c2ccccc2Cl)nc2sc(C(F)(F)Cl)nn12)C(F)(F)F (stereo not drawn) [Example 0741]"
result = 3.8

[[record]]
compound = "CC(C)C(C)NC(=O)/C=C/c1c(-c2ccccc2Cl)nc2sc(C(F)(F)Cl)nn12 (stereo not drawn) [Example 0740]"
result = 3.97

[[record]]
compound = "CCCC(C)NC(=O)/C=C/c1c(-c2ccccc2Cl)nc2sc(C(F)(F)Cl)nn12 (stereo not drawn) [Example 0734]"
result = 4.06

[[record]]
compound = "CC(C)NC(=O)/C=C/c1c(-c2ccccc2Cl)nc2sc(C(F)(F)Cl)nn12 [Example 0724]"
result = 3.36

[[record]]
compound = "CC(NC(=O)/C=C/c1c(-c2cc(Cl)ccc2Cl)nc2sc(C(F)(F)F)nn12)C(F)(F)F (stereo not drawn) [Example 0792]"
result = 4.13

[[record]]
compound = "O=C(/C=C/c1c(-c2ccccc2Cl)nc2sc(C(F)(F)Cl)nn12)Nc1ccc(F)cc1 [Example 0767]"
result = 4.19

[[record]]
compound = "COc1ccc(-c2nc3sc(C(F)(F)F)nn3c2/C=C/C(=O)NC(C)(C)C)cc1OC [Example 0654]"
result = 3.37

[[record]]
compound = "CC(NC(=O)/C=C/c1c(-c2ccc(Cl)c(Cl)c2)nc2sc(C(F)(F)F)nn12)c1ccccn1 (stereo not drawn) [Example 0793]"
result = 3.26

[[record]]
compound = "CCC(CC)NC(=O)/C=C/c1c(-c2ccccc2Cl)nc2sc(C(F)(F)Cl)nn12 [Example 0781]"
result = 3.95

[[record]]
compound = "CCC(C)NC(=O)/C=C/c1c(-c2ccccc2Cl)nc2sc(C(F)(F)Cl)nn12 (stereo not drawn) [Example 0733]"
result = 3.67

[[record]]
compound = "O=C(/C=C/c1c(-c2ccccc2Cl)nc2sc(C(F)(F)Cl)nn12)NC1CC1 [Example 0728]"
result = 3.07


----------
Each entry below lists one item and its recorded Physical data (logP) value.
Test: log P determination by HPLC (EEC Directive 79/831 Annex V.A8, gradient method)
Assay type: physicochemical
QUANTITY KIND: Physical data (logP)

[[record]]
compound = "O=Cc1c(-c2cccnc2Cl)nc2sc(C(F)(F)F)nn12 [IVA116]"
quantity_kind = "Physical data (logP)"
readout_number = 2.14

[[record]]
compound = "O=C(/C=C/c1c(-c2ccccc2Cl)nc2sc(C(F)(F)F)nn12)NC1CCCCC1 [Example 0155]"
quantity_kind = "Physical data (logP)"
readout_number = 3.9

[[record]]
compound = "CCC(C)NC(=O)/C=C/c1c(-c2cccc(Cl)c2)nc2sc(C(F)(F)F)nn12 (stereo not shown) [Example 0087]"
quantity_kind = "Physical data (logP)"
readout_number = 3.99

[[record]]
compound = "O=C(O)/C=C/c1c(-c2ccc(F)cc2Cl)nc2sc(C(F)(F)C(F)(F)C(F)(F)F)nn12 [VA135]"
quantity_kind = "Physical data (logP)"
readout_number = 3.75


----------
Assay: log P determination by HPLC (EEC Directive 79/831 Annex V.A8, gradient method)
Format: physicochemical
Label scheme for Physical data: log P: lower than 4 is no (0), 4 and above is yes (1).

[[record]]
compound = "CCC(NC(=O)C=Cc1c(-c2cccc(C(F)(F)F)c2)nc2sc(C(F)(F)F)nn12)C1CCCCC1 (centres unmarked)"
class_label = "yes (1)"

[[record]]
compound = "CC(ONC(=O)/C=C/c1c(-c2ccc(F)cc2)nc2sc(C(F)(F)F)nn12)c1ccccc1 (centres unmarked)"
class_label = "no (0)"

[[record]]
compound = "CC(ONC(=O)/C=C/c1c(-c2cccc(C(F)(F)F)c2)nc2sc(C(F)(F)F)nn12)c1ccccc1 (centres unmarked)"
class_label = "yes (1)"

[[record]]
compound = "CCC(CC)NC(=O)/C=C/c1c(-c2cccc(C(F)(F)F)c2)nc2sc(C(F)(F)F)nn12"
class_label = "yes (1)"

[[record]]
compound = "Cc1ccccc1-c1nc2sc(C(F)(F)F)nn2c1/C=C/C(=O)NOCC1CC1"
class_label = "no (0)"

[[record]]
compound = "CCC(NC(=O)C=Cc1c(-c2ccccc2C)nc2sc(C(F)(F)F)nn12)C1CCCCC1 (centres unmarked)"
class_label = "yes (1)"

[[record]]
compound = "Cc1ccccc1-c1nc2sc(C(F)(F)F)nn2c1/C=C/C(=O)NC1CC1"
class_label = "no (0)"

[[record]]
compound = "CC(C)(C)NC(=O)/C=C/c1c(-c2ccc(F)cc2)nc2sc(C(F)(F)F)nn12"
class_label = "no (0)"


----------
Assay: log P determination by HPLC (EEC Directive 79/831 Annex V.A8, gradient method)
Type: physicochemical
Settings: HPLC, gradient method, acetonitrile/0.1% strength aqueous phosphoric acid or formic acid; read-out: Physical data: log P
Each entry below lists one item and its recorded chromatographic logP value.
QUANTITY KIND: chromatographic logP

[[record]]
compound = "CC(C)NC(=O)/C=C/c1c(-c2ccc(Cl)cc2Cl)nc2sc(C(F)(F)F)nn12"
quantity_kind = "chromatographic logP"
readout_number = 3.69

[[record]]
compound = "CCCC(C)NC(=O)/C=C/c1c(-c2ccccc2F)nc2sc(C(F)(F)F)nn12 (centres unmarked)"
quantity_kind = "chromatographic logP"
readout_number = 3.68

[[record]]
compound = "Cc1ccccc1-c1nc2sc(C(F)(F)F)nn2c1/C=C/C(=O)NC(C)c1ccccn1 (centres unmarked)"
quantity_kind = "chromatographic logP"
readout_number = 2.45

[[record]]
compound = "Cc1ccccc1-c1nc2sc(C(F)(F)F)nn2c1/C=C/C(=O)NC(C)C"
quantity_kind = "chromatographic logP"
readout_number = 3.24

[[record]]
compound = "CC(C)NC(=O)/C=C/c1c(-c2ccc(F)cc2)nc2sc(C(F)(F)F)nn12"
quantity_kind = "chromatographic logP"
readout_number = 3.24

[[record]]
compound = "O=C(/C=C/c1c(-c2ccc(F)cc2Cl)nc2sc(C(F)(F)F)nn12)NCCC(F)(F)F"
quantity_kind = "chromatographic logP"
readout_number = 3.51

[[record]]
compound = "Cc1ccccc1-c1nc2sc(C(F)(F)F)nn2c1/C=C/C(=O)NC(C)C(F)(F)F (centres unmarked)"
quantity_kind = "chromatographic logP"
readout_number = 3.76

[[record]]
compound = "CC(C)C(NC(=O)/C=C/c1c(-c2ccc(F)cc2Cl)nc2sc(C(F)(F)F)nn12)C(F)(F)F (centres unmarked)"
quantity_kind = "chromatographic logP"
readout_number = 4.37

